System: Candida albicans
Experiment: Antifungal activity against Candida albicans NCIM 3100 at 10 ug/ml
Assay type: functional
Settings: read-out: IZ
Give measured zone of inhibition at 10 µg/mL for each item. Keep answers brief.
One number for each entry, in mm.

Compound	Test Value
CCOC(=O)C1=C(C)N=c2s/c(=C\c3ccc(OC)cc3)c(=O)n2C1c1ccc(SC)cc1 (stereo not drawn)	20
CCOC(=O)C1=C(C)N=c2s/c(=C\c3ccc(-c4ccc(Cl)cc4)o3)c(=O)n2C1c1ccc(SC)cc1 (stereo not drawn)	19
CCOC(=O)C1=C(C)N=c2s/c(=C\c3ccc(F)c(Oc4ccccc4)c3)c(=O)n2C1c1ccc(SC)cc1 (stereo not drawn)	20
CCOC(=O)C1=C(C)N=c2s/c(=C\c3ccc(F)cc3)c(=O)n2C1c1ccc(SC)cc1 (stereo not drawn)	19
CCOC(=O)C1=C(C)N=c2s/c(=C\c3ccc(-c4ccc(Br)cc4)o3)c(=O)n2C1c1ccc(SC)cc1 (stereo not drawn)	19
CCOC(=O)C1=C(C)N=c2s/c(=C\c3ccc(SC)cc3)c(=O)n2C1c1ccc(SC)cc1 (stereo not drawn)	10

Report zone of inhibition at 10 µg/mL for each item below.
1. CCOC(=O)C1=C(C)N=c2s/c(=C\c3ccc(O)c(OC)c3)c(=O)n2C1c1ccc(SC)cc1 (stereo not drawn)
2. CCOC(=O)C1=C(C)N=c2s/c(=C\c3ccc(Cl)cc3)c(=O)n2C1c1ccc(SC)cc1 (stereo not drawn)

10
11

Sourced from ChEMBL document CHEMBL1143775
